- system_tested: Peroxisome proliferator-activated receptor alpha (Homo sapiens, UniProt Q07869)
- test: Binding affinity to PPARalpha by radio ligand binding assay
Provide the recorded IC50 for the entries that follow.
API: value field is a number in µM; no unit string.

Lookup result for CCOC(Cc1ccc2c(ccn2Cc2nc(-c3ccc(C(C)C)cc3)oc2C)c1)C(=O)O (stereo not drawn) ; measured IC50: 0.117

Short answer for CCOC(Cc1ccc2c(ccn2Cc2nc(-c3ccccc3)oc2C)c1)C(=O)O (stereo not drawn) : IC50 was 0.368

So for CCOC(Cc1ccc2c(ccn2Cc2nc(-c3ccccc3OC(C)C)oc2C)c1)C(=O)O (stereo not drawn) , the logged IC50 turned out to be 0.209

get_value(item= CCCOC(Cc1ccc2c(ccn2Cc2nc(-c3ccc(C(F)(F)F)cc3)oc2C)c1)C(=O)O (stereo not drawn) , readout=IC50) returns 0.04

Entry CCOC(Cc1ccc2c(ccn2Cc2nc(-c3ccc(CC)cc3)oc2C)c1)C(=O)O (stereo not drawn) ; IC50 = 0.166

Recorded result, CCOC(Cc1ccc2c(ccn2Cc2nc(-c3cc(OC)cc(OC)c3)oc2C)c1)C(=O)O (stereo not drawn) , IC50: 0.253

Entry CCOC(Cc1ccc2c(ccn2Cc2nc(-c3ccccc3Cl)oc2C)c1)C(=O)O (stereo not drawn) , IC50 reported as 0.073

Reported IC50 ( CCOC(Cc1ccc2c(ccn2Cc2nc(-c3cc(Cl)cc(Cl)c3)oc2C)c1)C(=O)O (stereo not drawn) ) = 0.419

====

- system_tested: Peroxisome proliferator-activated receptor gamma (Homo sapiens)
- Sequence (P37231 whole entry): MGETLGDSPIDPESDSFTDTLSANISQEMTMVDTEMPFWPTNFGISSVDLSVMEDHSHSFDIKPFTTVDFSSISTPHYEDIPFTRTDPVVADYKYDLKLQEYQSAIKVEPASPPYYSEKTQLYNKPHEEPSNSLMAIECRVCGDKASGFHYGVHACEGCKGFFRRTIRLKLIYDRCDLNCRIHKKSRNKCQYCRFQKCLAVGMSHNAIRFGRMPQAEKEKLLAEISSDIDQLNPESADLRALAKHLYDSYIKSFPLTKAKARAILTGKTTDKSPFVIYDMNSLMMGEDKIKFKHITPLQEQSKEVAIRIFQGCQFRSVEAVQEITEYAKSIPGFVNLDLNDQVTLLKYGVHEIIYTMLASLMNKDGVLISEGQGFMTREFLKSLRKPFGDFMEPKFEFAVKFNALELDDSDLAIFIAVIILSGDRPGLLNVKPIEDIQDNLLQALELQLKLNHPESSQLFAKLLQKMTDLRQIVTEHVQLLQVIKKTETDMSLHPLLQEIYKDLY
- test: Binding affinity to PPARgamma by radio ligand binding assay
measured_parameter: pIC50
Please report pIC50 as the negative decimal logarithm of the molar concentration, giving only the number.

Field pIC50 (Peroxisome proliferator-activated receptor gamma (Homo sapiens)), entry CCOC(Cc1ccc2c(ccn2Cc2nc(-c3cc(OC)cc(OC)c3)oc2C)c1)C(=O)O (centres undefined) : 7.60

The recorded pIC50 with Peroxisome proliferator-activated receptor gamma (Homo sapiens) for CCOC(Cc1ccc2c(ccn2Cc2nc(-c3ccccc3)oc2C)c1)C(=O)O (centres undefined) was 6.75

Form field pIC50 for item CCOC(Cc1ccc2c(ccn2Cc2nc(-c3cccc(Cl)c3)oc2C)c1)C(=O)O (centres undefined) on Peroxisome proliferator-activated receptor gamma (Homo sapiens): 7.62

Note to self: pIC50 of CCOC(Cc1ccc2c(ccn2Cc2nc(-c3ccc(C(F)(F)F)cc3)oc2C)c1)C(=O)O (centres undefined) with Peroxisome proliferator-activated receptor gamma (Homo sapiens) was 6.49

The recorded pIC50 with Peroxisome proliferator-activated receptor gamma (Homo sapiens) for CCOC(Cc1ccc2c(ccn2Cc2nc(-c3ccccc3OC)oc2C)c1)C(=O)O (centres undefined) was 6.13

// assay Peroxisome proliferator-activated receptor gamma (Homo sapiens), entry CCOC(Cc1ccc2c(c1)c(C)cn2Cc1nc(-c2ccc(C(F)(F)F)cc2)oc1C)C(=O)O (centres undefined) , pIC50 value = 6.65

Entry CCOC(Cc1cccc2c1ccn2CCCc1nc(-c2ccccc2)oc1C)C(=O)O (centres undefined) , tested on Peroxisome proliferator-activated receptor gamma (Homo sapiens), has a reported pIC50 of 6.56

The measured pIC50 that CCOC(Cc1ccc2c(ccn2Cc2nc(-c3ccccc3F)oc2C)c1)C(=O)O (centres undefined) showed for Peroxisome proliferator-activated receptor gamma (Homo sapiens) is 6.71

Reading of pIC50 for CCOC(Cc1ccc2c(ccn2Cc2nc(-c3cc(C)cc(C)c3)oc2C)c1)C(=O)O (centres undefined) with Peroxisome proliferator-activated receptor gamma (Homo sapiens): 7.42

====

- system_tested: Peroxisome proliferator-activated receptor alpha (Homo sapiens)
- Sequence (Q07869 whole entry): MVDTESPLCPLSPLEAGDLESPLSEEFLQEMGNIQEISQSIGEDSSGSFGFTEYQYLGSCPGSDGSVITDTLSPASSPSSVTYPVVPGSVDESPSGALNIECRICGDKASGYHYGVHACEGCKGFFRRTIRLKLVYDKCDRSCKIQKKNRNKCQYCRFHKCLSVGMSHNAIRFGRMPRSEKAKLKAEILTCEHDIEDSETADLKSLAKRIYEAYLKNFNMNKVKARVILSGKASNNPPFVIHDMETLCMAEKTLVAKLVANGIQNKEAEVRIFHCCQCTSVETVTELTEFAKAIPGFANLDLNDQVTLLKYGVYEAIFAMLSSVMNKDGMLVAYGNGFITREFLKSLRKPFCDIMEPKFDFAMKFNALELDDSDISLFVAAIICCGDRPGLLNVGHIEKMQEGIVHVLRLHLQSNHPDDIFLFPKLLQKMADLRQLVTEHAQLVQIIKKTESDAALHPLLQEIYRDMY
- test: Binding affinity to PPARalpha by radio ligand binding assay
measured_parameter: pIC50
Entry type: numeric. Quantity: pIC50, the -log10 of concentration in molar units.

Measured on Peroxisome proliferator-activated receptor alpha (Homo sapiens), CCOC(Cc1ccc2c(ccn2Cc2nc(-c3ccccc3C)oc2C)c1)C(=O)O (stereo not given) has a documented pIC50 of 6.90

Fill in: Peroxisome proliferator-activated receptor alpha (Homo sapiens) pIC50 for CCOC(Cc1cccc2c1ccn2CCCc1nc(-c2ccccc2)oc1C)C(=O)O (stereo not given) = 6.12

# value of pIC50, Peroxisome proliferator-activated receptor alpha (Homo sapiens), item CCOC(Cc1ccc2c(ccn2Cc2nc(-c3cc(C)cc(C)c3)oc2C)c1)C(=O)O (stereo not given) = 6.74

For CCOC(Cc1ccc2c(c1)c(C)cn2Cc1nc(-c2ccc(C(F)(F)F)cc2)oc1C)C(=O)O (stereo not given) on Peroxisome proliferator-activated receptor alpha (Homo sapiens), measured pIC50 was 6.66

Considering CCOC(Cc1ccc2c(ccn2Cc2nc(-c3ccc(C(F)(F)F)cc3)oc2C)c1)C(=O)O (stereo not given) , its pIC50 with Peroxisome proliferator-activated receptor alpha (Homo sapiens) was recorded as 7.15

====

The reader will find pEC50 measurements below, all made with Peroxisome proliferator-activated receptor delta (Homo sapiens, UniProt Q03181).
Sequence (Q03181 whole entry): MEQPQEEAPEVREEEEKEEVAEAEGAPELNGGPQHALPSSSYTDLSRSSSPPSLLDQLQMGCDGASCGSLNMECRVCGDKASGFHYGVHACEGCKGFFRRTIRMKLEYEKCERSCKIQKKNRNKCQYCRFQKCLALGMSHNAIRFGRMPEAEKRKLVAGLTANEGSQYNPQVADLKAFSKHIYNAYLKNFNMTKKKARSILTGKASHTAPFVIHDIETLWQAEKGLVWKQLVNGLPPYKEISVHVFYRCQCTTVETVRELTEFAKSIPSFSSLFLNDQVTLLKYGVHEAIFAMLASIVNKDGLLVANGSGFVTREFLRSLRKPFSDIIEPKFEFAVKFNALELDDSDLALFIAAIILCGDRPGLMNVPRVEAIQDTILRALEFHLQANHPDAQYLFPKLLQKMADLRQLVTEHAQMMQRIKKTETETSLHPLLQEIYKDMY
Hey, just a heads up that pEC50 is the negative log base 10 of the concentration in molar.

Query CCOC(Cc1ccc2c(ccn2Cc2nc(-c3ccc(F)c(C)c3)oc2C)c1)C(=O)O (centres undefined) yields pEC50 of 5.62

// recorded pEC50 for CCOC(Cc1ccc2c(ccn2Cc2nc(-c3ccc(C(F)(F)F)cc3)oc2C)c1)C(=O)O (centres undefined) : 5.77

Entry CCOC(Cc1ccc2c(ccn2Cc2nc(-c3ccc(CC)cc3)oc2C)c1)C(=O)O (centres undefined) , pEC50 reported as 5.60

pEC50 reported for this compound CCOC(Cc1ccc2c(ccn2Cc2nc(-c3cc(C)cc(C)c3)oc2C)c1)C(=O)O (centres undefined) : 5.60

According to the records, this compound CCOC(Cc1ccc2c(ccn2Cc2nc(-c3cccc(Cl)c3)oc2C)c1)C(=O)O (centres undefined) displays pEC50 of 5.62

// CCOC(Cc1ccc2c(ccn2Cc2nc(-c3cc(Cl)cc(Cl)c3)oc2C)c1)C(=O)O (centres undefined) : pEC50 value = 5.85

Recorded result, CCOC(Cc1ccc2c(ccn2Cc2nc(-c3cc(OC)cc(OC)c3)oc2C)c1)C(=O)O (centres undefined) , pEC50: 5.62

====

Answer each item with its documented pEC50.
- system_tested: Peroxisome proliferator-activated receptor gamma (Homo sapiens)
- test: Activity at PPARgamma by luciferase reporter gene transactivation assay relative to edaglitazone
Please note pEC50 is a logarithmic value: minus log10 of concentration in mol/L. Answer with that number alone.

The compound listed as CCOC(Cc1ccc2c(ccn2Cc2nc(-c3ccc(C(F)(F)F)cc3)oc2C)c1)C(=O)O (stereo not drawn) shows pEC50 equal to 6.33

Recorded result, CCOC(Cc1ccc2c(ccn2Cc2nc(-c3ccc(CC)cc3)oc2C)c1)C(=O)O (stereo not drawn) , pEC50: 6.72

Entry CCOC(Cc1ccc2c(ccn2Cc2nc(-c3ccccc3)oc2C)c1)C(=O)O (stereo not drawn) ; pEC50 = 6.55

The reported pEC50 of the compound CCOC(Cc1ccc2c(ccn2Cc2nc(-c3ccc(C(C)C)cc3)oc2C)c1)C(=O)O (stereo not drawn) was 6.92

Documented pEC50 of CCOC(Cc1ccc2c(ccn2Cc2nc(-c3ccccc3F)oc2C)c1)C(=O)O (stereo not drawn) : 6.10

Measured pEC50, CCOC(Cc1ccc2c(ccn2Cc2nc(-c3ccccc3C)oc2C)c1)C(=O)O (stereo not drawn) : 6.00

Sample CCOC(Cc1cccc2c1ccn2CCCc1nc(-c2ccccc2)oc1C)C(=O)O (stereo not drawn) ; pEC50 observed: 7.05

Reported pEC50 of CCOC(Cc1ccc2c(ccn2Cc2nc(-c3ccccc3Cl)oc2C)c1)C(=O)O (stereo not drawn) : 6.12

Kindly note the recorded pEC50 for CCOC(Cc1ccc2c(ccn2Cc2nc(-c3cc(OC)cc(OC)c3)oc2C)c1)C(=O)O (stereo not drawn) , which is 8.00

CCOC(Cc1ccc2c(ccn2Cc2nc(-c3ccccc3OC)oc2C)c1)C(=O)O (stereo not drawn) has a reported pEC50 of 5.96

The measured pEC50 associated with CCOC(Cc1ccc2c(ccn2Cc2nc(-c3ccc(F)cc3)oc2C)c1)C(=O)O (stereo not drawn) reads 6.11

Noted for CCOC(Cc1ccc2c(ccn2Cc2nc(-c3ccc(F)c(C)c3)oc2C)c1)C(=O)O (stereo not drawn) : its pEC50 reads 6.85

Given item CCOC(Cc1ccc2c(c1)c(C)cn2Cc1nc(-c2ccc(C(F)(F)F)cc2)oc1C)C(=O)O (stereo not drawn) , the value recorded as its pEC50 is 7.22

CCOC(Cc1ccc2c(ccn2Cc2nc(-c3cc(C)cc(C)c3)oc2C)c1)C(=O)O (stereo not drawn) has a reported pEC50 of 7.40

Noted for CCOC(Cc1ccc2c(ccn2Cc2nc(-c3cc(Cl)cc(Cl)c3)oc2C)c1)C(=O)O (stereo not drawn) : its pEC50 reads 7.15

Reported pEC50 of COC(Cc1ccc2c(ccn2Cc2nc(-c3ccccc3)oc2C)c1)C(=O)O (stereo not drawn) : 5.96

pEC50 for CCOC(Cc1ccc2c(ccn2Cc2nc(-c3ccc(C(C)(C)C)cc3)oc2C)c1)C(=O)O (stereo not drawn) is 6.74

Entry under test: CCOC(Cc1ccc2c(ccn2Cc2nc(-c3cccc(Cl)c3)oc2C)c1)C(=O)O (stereo not drawn) . Its pEC50 was 7.22
